B1: ZBTB22 (parent)
chain: RPFDCPVCNKKFKMKHHLTEHMKT

Variants of: B1
Assay: protein stability index of a GFP-peptide fusion (GPS, HEK-293T) (PSI 1-6); higher = more stable;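 also: lentivirally expressed fusions sorted by FACS into six bins by GFP to DsRed ratio, PSI derived from sequencing read proportions per bin multiplied by bin number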
Conditions: c terminus: a fixed tail appended
MEASUREMENT NAME: protein stability index

• V7P = 2.7
• F3S = 2.58
• F12C = 4.09
